Tested on: SNB-19 CNS
protocol_description: NCI tumour cell line growth inhibition, 48 h
The entries below come with measured TGI values attached.

INSERT INTO assay_data (compound, target, observation_type, test_result) VALUES
  ('O=[n+]1cnn([O-])c2ccccc21', 'SNB-19 CNS', 'TGI', '> 100 µM'),
  ('O=P(O)(O)OP(=O)(O)O', 'SNB-19 CNS', 'TGI', '> 100 µM'),
  ('CCC(C#N)N(Cc1ccc(CN(C(=O)c2ccccc2)C(C#N)CC)cc1)C(=O)c1ccccc1 (stereo not given)', 'SNB-19 CNS', 'TGI', '> 100 µM'),
  ('CSc1nc(C)cc(N(C)c2ccccc2)n1', 'SNB-19 CNS', 'TGI', '> 100 µM');

Then there is this compound:
# input Identify measured TGI obtained with SNB-19 CNS for `O=C(Nc1cccc(-n2cc(-c3ccncc3)c(-c3cc(O)cc(Cl)c3)n2)c1)Nc1ccc(Cl)c(Cl)c1` .
# output 19 µM
